Data provenance is paper PMC4427492.

TEST_SYSTEM: human M1 muscarinic acetylcholine receptor (hM1 mAChR) (Homo sapiens)
Construct: membranes of CHO cells stably expressing human M1
Sequence (P11229 1-460): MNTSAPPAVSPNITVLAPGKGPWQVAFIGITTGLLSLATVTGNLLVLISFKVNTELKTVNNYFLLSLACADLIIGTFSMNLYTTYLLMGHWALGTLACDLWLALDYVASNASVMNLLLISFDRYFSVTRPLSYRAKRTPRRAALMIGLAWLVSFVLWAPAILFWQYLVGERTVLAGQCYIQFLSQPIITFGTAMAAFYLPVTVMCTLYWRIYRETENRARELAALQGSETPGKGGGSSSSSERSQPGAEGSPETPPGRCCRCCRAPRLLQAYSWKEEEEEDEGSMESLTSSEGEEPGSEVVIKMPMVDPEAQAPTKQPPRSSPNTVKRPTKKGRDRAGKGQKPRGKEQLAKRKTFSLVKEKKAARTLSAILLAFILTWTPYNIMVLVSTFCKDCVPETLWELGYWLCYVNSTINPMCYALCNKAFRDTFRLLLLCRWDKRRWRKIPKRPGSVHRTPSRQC
TEST_METHOD_NOTES: [3H]NMS radioligand displacement; also antagonism of CCh-induced calcium mobilization
MEASURED_PROPERTY: Ki (µM)
Write the value in µM as a bare number.

Given CCN(CC)C(=O)c1cccc(C)c1 [DEET, N,N-Diethyl-3-methylbenzamide] , respond with its Ki.
690
